# Test system: Phytophthora infestans (Mont) de Bary
# Assay Details: microbe, parasite or virus in culture
# Format: cell-based
# Condition Parameters: Phytophthora infestans, read-out: Fungicidal activity, inhibition, PI
Property Label: inhibition at 50 µg/mL (%)
Respond with the bare value in %.

INPUT: Provide value of inhibition at 50 µg/mL for this record tested with Phytophthora infestans (Mont) de Bary: "Cc1ccc(/C=C(\NC(=O)c2ccccc2)C(=O)N2CCC(O)(c3ccc(Br)cc3)CC2)cc1"
OUTPUT: 21

INPUT: Recorded inhibition at 50 µg/mL for "O=C(N/C(=C\c1ccccc1)C(=O)N1CCC(c2nc(CO)cs2)CC1)c1ccccc1" with Phytophthora infestans (Mont) de Bary, please?
OUTPUT: 24

INPUT: Find the measured inhibition at 50 µg/mL: item "O=C(N/C(=C\c1c[nH]cn1)C(=O)N1CCC(O)(c2ccc(Br)cc2)CC1)c1ccccc1" , target or system Phytophthora infestans (Mont) de Bary.
OUTPUT: 19

INPUT: Return inhibition at 50 µg/mL measured with Phytophthora infestans (Mont) de Bary given this compound: "O=C(N/C(=C\c1ccccc1)C(=O)N1CCC(O)(c2ccc(Br)cc2)CC1)c1ccccc1[N+](=O)[O-]"
OUTPUT: 10

INPUT: Lab request: please report inhibition at 50 µg/mL under test system Phytophthora infestans (Mont) de Bary for "O=C(N/C(=C\c1ccccc1)C(=O)N1CCC(O)(c2ccc(Br)cc2)CC1)c1ccc(C(F)(F)F)cc1"
OUTPUT: 18

INPUT: Form: Entry = "O=C(NC1CC1)/C(=C/c1ccccc1)NC(=O)c1ccccc1" | System = Phytophthora infestans (Mont) de Bary | inhibition at 50 µg/mL = ____
OUTPUT: 11

INPUT: Form field - read-out: inhibition at 50 µg/mL; system: Phytophthora infestans (Mont) de Bary; submitted item: "O=C(N/C(=C\c1ccc(C(F)(F)F)cc1)C(=O)N1CCC(O)(c2ccc(Br)cc2)CC1)c1ccccc1"
OUTPUT: 21

INPUT: What reported inhibition at 50 µg/mL corresponds to "Cc1snnc1/C=C(\NC(=O)c1ccccc1)C(=O)N1CCC(O)(c2ccc(Br)cc2)CC1" on Phytophthora infestans (Mont) de Bary?
OUTPUT: 19
